- assay_method_text: A CellTox Green Cytotoxicity Assay to monitor cytotoxicity in HEK293 cells - 24 hour (AID 1224875); further: nearly all actives have a fitted effect of over 45% in size
- test_context: CellTox Green fluorescence; series mostly up to 76.8 µM
Inconclusive results are not listed. Active and inactive are the calls of the source. The call rests on the fitted dose curve; in most records, active means well fitted activation curve with a large enough effect in the repeat runs; inconclusive means weak or mixed curves; inactive means flat fitted curve, though single readings scatter.
Outcome codes: YES for active, NO for inactive

[
  {
    "compound": "ClC1(Cl)C2(Cl)C3(Cl)C4(Cl)C(Cl)(Cl)C5(Cl)C3(Cl)C1(Cl)C5(Cl)C24Cl (stereo unspecified)",
    "category_label": "NO"
  },
  {
    "compound": "CC(=O)C(Cl)C(=O)N(C)C (stereo unspecified)",
    "category_label": "NO"
  },
  {
    "compound": "CO/N=C(\\C(=O)OC)c1ccccc1CO/N=C(\\C)c1cccc(C(F)(F)F)c1",
    "category_label": "NO"
  },
  {
    "compound": "CCN(CC)C(=O)N[C@@H]1C=C2c3cccc4[nH]cc(c34)C[C@@H]2N(C)C1",
    "category_label": "NO"
  },
  {
    "compound": "O=S1(=O)OCC2C(CO1)C1(Cl)C(Cl)=C(Cl)C2(Cl)C1(Cl)Cl (stereo unspecified)",
    "category_label": "NO"
  },
  {
    "compound": "CCC[CH2][Sn]([CH2]CCC)([O]C(C)=O)[O]C(C)=O",
    "category_label": "YES"
  },
  {
    "compound": "c1cc[n+]2c(c1)-c1cccc[n+]1CC2",
    "category_label": "NO"
  },
  {
    "compound": "CSC1=N[C@@](C)(c2ccccc2)C(=O)N1Nc1ccccc1",
    "category_label": "NO"
  },
  {
    "compound": "CN1CCc2cc3c(cc2C1O)OCO3 (stereo unspecified)",
    "category_label": "NO"
  },
  {
    "compound": "C[N+]1(C)[C@@H]2CC[C@H]1CC(OC(=O)C(CO)c1ccccc1)C2 (stereo partly specified)",
    "category_label": "NO"
  },
  {
    "compound": "CCCCc1ccccc1",
    "category_label": "NO"
  },
  {
    "compound": "CNC(=O)/C=C(\\C)OP(=O)(OC)OC",
    "category_label": "NO"
  },
  {
    "compound": "N#Cc1c[nH]cc1-c1cccc2c1OC(F)(F)O2",
    "category_label": "NO"
  },
  {
    "compound": "N#CC(C#N)=NNc1cccc(Cl)c1",
    "category_label": "NO"
  },
  {
    "compound": "Clc1ccc(C(Cl)(Cl)Cl)cc1Cl",
    "category_label": "YES"
  },
  {
    "compound": "O=C(N[C@@H]1N=C(c2ccccc2F)c2cccc3c2N(CC3)C1=O)c1cc2ccccc2[nH]1",
    "category_label": "YES"
  },
  {
    "compound": "Nc1ccc(Cl)cc1C(=O)c1ccccc1F",
    "category_label": "NO"
  },
  {
    "compound": "C=Cc1cccc(CCl)c1",
    "category_label": "NO"
  },
  {
    "compound": "COP(=S)(OC)Oc1nc(Cl)c(Cl)cc1Cl",
    "category_label": "NO"
  },
  {
    "compound": "CC(=O)[O][Sn]([c]1ccccc1)([c]1ccccc1)[c]1ccccc1",
    "category_label": "YES"
  },
  {
    "compound": "CCC(C)Nc1c([N+](=O)[O-])cc(C(C)(C)C)cc1[N+](=O)[O-] (stereo unspecified)",
    "category_label": "NO"
  }
]
